experiment: Motor impairment, inverted screen test; settings: mouse, inverted screen test, sc
test.readout: TD50 at 0.5 h (mg/kg)
One number for each entry, in mg/kg.

Query O=C(O)c1cn2c(CP(=O)(O)O)cccc2n1 yields TD50 at 0.5 h of 24.6

----------
biological target: TCP (1-[1-(2-thienyl)cyclohexyl]piperidine) binding; assay: TCP Modulation Assay; design: species or system rat; settings: second batch; 2 nM tritiated TCP, 0.05 mM L-glutamate, rat brain SPM; read-out: TCP Ki IC50
test.readout: pKi
One number for each entry, as −log10 of the molar value.

The measured pKi that O=C(O)c1cn2cccc(CP(=O)(O)O)c2n1 showed for TCP (1-[1-(2-thienyl)cyclohexyl]piperidine) binding is 5.11
